# ASSAY_PROCEDURE: AUC (0 to 12 hrs) in human at 400 mg, po bid on day 1 and 200 mg, po bid on day 2 and 3 followed by 7 days of washout period then treated with ritonavir 400 mg, po for 10 days followed by 200 mg, po of drug coadministered with 400 mg, po ritonavir till day 30
# Type: ADME, organism-based
# Set-up: time < 12 hr, dose 400 mg, route oral
# CONDITIONS: plasma
READOUT_NAME: AUC at 12 h (ng·h/mL)
Field: numeric (ng·h/mL). Do not append units.

In plain terms, C[C@@H](c1ncncc1F)[C@](O)(Cn1cncn1)c1ccc(F)cc1F has a documented AUC at 12 h of 4250
